test system: mPTP; test: mPTP activity (Ca2+ retention) assay in isolated rat brain mitochondria; format: biochemical; settings: isolated rat brain mitochondria; Fluo5N fluorescence at 10 min after Ca2+ (75 μM) bolus
Measured attribute: mPTP Rat brain pIC50

Here's what some known entries look like.
O=C(c1cncc(=O)[nH]1)N1CC(c2ccc(F)cc2F)C2(CCC2)C1 (single isomer, unassigned) [Example 37b] :: <4.52
O=C(c1nccc(=O)[nH]1)N1CC(c2ccccc2)C2(CC(F)C2)C1 (single isomer, unassigned) [Example 25d] :: <4.52

Let's switch to this compound now.
compound O=C(c1cncc(=O)[nH]1)N1CC(c2cccc(Cl)c2)C2(CCC2)C1 (single isomer, unassigned) [Example 31b] , mPTP Rat brain pIC50 observed: <4.52

---

tested on: mPTP; experiment: mPTP activity (Ca2+ retention) assay in isolated rat liver mitochondria; format: biochemical; details: isolated rat liver mitochondria; Fluo5N fluorescence at 10 min after CaCl2 (75 μM) bolus; DMSO 0%, 5 μM cyclosporin A 100% inhibition
Measured attribute: mPTP Rat liver pIC50*

Here's what some known entries look like.
O=C(c1noc(=O)[nH]1)N1CC(c2cccc(F)c2F)C2(CCC2)C1 (single isomer, unassigned) [Example 44b] :: <4.52
O=C(c1noc(=O)[nH]1)N1CC(c2ccc(F)cc2F)C2(CCC2)C1 (single isomer, unassigned) [Example 48b] :: <4.52

Let's switch to this compound now.
compound O=C(c1cc(O)no1)N1CC(c2cccc(F)c2F)C2(CCC2)C1 (single isomer, unassigned) [Example 39b] , mPTP Rat liver pIC50* observed: <4.52

---

tested on: mPTP; assay: mPTP activity (Ca2+ retention) assay in isolated rat brain mitochondria; type: biochemical; settings: isolated rat brain mitochondria; Fluo5N fluorescence at 10 min after Ca2+ (75 μM) bolus
Measured attribute: mPTP Rat brain pIC50

O=C(c1cncc(=O)[nH]1)N1CC(c2ccccc2Cl)C2(CCC2)C1 (single isomer, unassigned) [Example 30a] :: 6.92
COc1ccc(C2CN(C(=O)c3cncc(=O)[nH]3)CC23CCC3)cc1 (single isomer, unassigned) [Example 28a] :: 5.69
O=C(c1cncc(=O)[nH]1)N1CC(c2ccc(F)cc2)C2(CCC2)C1 (single isomer, unassigned) [Example 35a] :: 7.5
O=C(c1nccc(=O)[nH]1)N1CC(c2ccccc2)C2(CC(F)C2)C1 (single isomer, unassigned) [Example 25a] :: 6.88
O=C(c1noc(=O)[nH]1)N1CC(c2cccc(F)c2F)C2(CCC2)C1 (single isomer, unassigned) [Example 44b] :: 5.19
O=C(c1cncc(O)n1)N1CC(c2ccccc2)C2(CCC2)C1 (stereo not drawn) [Example 2] :: 6.90
CC1(C)CN(C(=O)c2cncc(=O)[nH]2)CC1c1ccccc1 (single isomer, unassigned) [Example 10a] :: 7.03
O=C(c1cncc(=O)[nH]1)N1CC(c2cccc(Cl)c2)C2(CCC2)C1 (single isomer, unassigned) [Example 31a] :: 7.22

---

test system: mPTP; test: mPTP activity (Ca2+ retention) assay in isolated rat brain mitochondria; assay type: biochemical; conditions: isolated rat brain mitochondria; Fluo5N fluorescence at 10 min after Ca2+ (75 μM) bolus
Measured attribute: mPTP Rat brain pIC50

CC1(C)CN(C(=O)c2cncc(O)c2)CC1c1ccccc1 (stereo not shown) :: 6.22
O=C(c1nccc(=O)[nH]1)N1CC(c2ccccc2)C2(CC(F)C2)C1 (single isomer, unassigned) [Example 25b] :: 5.57
O=C(c1cncc(=O)[nH]1)N1CC(c2ccc(F)c(F)c2)C2(CCC2)C1 (single isomer, unassigned) [Example 45a] :: 7.45

a. O=C(c1cc(O)no1)N1CC(c2ccc(F)c(F)c2)C2(CCC2)C1 (single isomer, unassigned) [Example 46a]
b. O=C(c1cccc(=O)[nH]1)N1CC(c2ccccc2)C2(CCC2)C1 (single isomer, unassigned) [Example 26a]
# returns the entry with the larger mPTP Rat brain pIC50; inputs a and b The response must carry the label of the picked entry.
a

---

system: mPTP; experiment: mPTP activity (Ca2+ retention) assay in isolated rat liver mitochondria; format: biochemical; settings: isolated rat liver mitochondria; Fluo5N fluorescence at 10 min after CaCl2 (75 μM) bolus; DMSO 0%, 5 μM cyclosporin A 100% inhibition
Measured mPTP Rat liver pIC50*, listed per entry.

Here's what some known entries look like.
O=C(c1cnn[nH]1)N1CC(c2ccccc2)C2(CCC2)C1 (single isomer, unassigned) [Example 14b] :: <4.52
O=C(c1cncc(=O)[nH]1)N1CC(c2ccc(F)c(F)c2)C2(CCC2)C1 (single isomer, unassigned) [Example 45b] :: <4.52

The molecule O=C(c1nccc(=O)[nH]1)N1CC(c2ccccc2)C2(CC(F)C2)C1 (single isomer, unassigned) [Example 25b] , when measured on mPTP, yielded mPTP Rat liver pIC50* of <4.52
